Where do these numbers come from? They come from patent US10584128B2.

# collection of Ki values tested on Rho kinase 2 (Homo sapiens)
# Sequence (O75116 whole entry): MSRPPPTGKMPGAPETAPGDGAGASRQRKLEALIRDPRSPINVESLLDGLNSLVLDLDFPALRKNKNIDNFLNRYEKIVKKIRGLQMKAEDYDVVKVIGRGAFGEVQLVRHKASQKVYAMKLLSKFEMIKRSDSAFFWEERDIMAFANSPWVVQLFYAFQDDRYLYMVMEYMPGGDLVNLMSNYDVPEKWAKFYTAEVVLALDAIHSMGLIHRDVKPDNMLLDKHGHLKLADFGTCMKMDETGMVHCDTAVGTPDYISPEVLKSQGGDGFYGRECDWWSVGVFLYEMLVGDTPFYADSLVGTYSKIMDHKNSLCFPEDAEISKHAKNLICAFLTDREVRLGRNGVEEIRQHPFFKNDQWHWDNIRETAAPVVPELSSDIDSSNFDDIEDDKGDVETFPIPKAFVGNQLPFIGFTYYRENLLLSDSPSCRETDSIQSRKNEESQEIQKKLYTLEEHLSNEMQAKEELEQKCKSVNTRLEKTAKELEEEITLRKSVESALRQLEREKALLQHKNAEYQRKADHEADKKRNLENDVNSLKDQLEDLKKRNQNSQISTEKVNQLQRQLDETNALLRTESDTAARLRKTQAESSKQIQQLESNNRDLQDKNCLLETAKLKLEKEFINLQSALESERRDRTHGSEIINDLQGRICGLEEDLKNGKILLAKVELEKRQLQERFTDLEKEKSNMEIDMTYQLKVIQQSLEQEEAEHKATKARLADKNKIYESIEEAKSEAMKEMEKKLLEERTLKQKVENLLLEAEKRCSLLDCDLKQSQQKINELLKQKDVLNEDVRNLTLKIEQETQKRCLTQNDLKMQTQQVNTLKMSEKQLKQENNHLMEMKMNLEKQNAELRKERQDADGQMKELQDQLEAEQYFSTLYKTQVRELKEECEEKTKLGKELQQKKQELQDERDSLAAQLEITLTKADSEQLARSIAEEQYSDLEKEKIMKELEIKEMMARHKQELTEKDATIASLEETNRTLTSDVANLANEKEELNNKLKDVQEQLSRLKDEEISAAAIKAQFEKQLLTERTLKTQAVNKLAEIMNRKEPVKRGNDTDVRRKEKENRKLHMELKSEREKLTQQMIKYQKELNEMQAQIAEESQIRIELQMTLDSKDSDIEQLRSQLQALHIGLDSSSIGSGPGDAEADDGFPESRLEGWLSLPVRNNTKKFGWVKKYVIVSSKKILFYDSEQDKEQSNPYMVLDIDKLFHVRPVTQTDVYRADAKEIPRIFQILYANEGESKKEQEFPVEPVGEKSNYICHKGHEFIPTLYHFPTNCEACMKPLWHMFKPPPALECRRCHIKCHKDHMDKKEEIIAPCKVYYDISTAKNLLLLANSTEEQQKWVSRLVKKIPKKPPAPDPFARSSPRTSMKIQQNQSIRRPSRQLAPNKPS

A selection of reference data follows.
CC1=C(C(=O)Nc2ccc3cnccc3c2)C(c2ccc(C(F)(F)F)c(F)c2)n2nc(C3CCN(C(=O)CCN4CCCCC4)CC3)cc2N1 (single isomer, unassigned) [135A]: > 500 nM
CC1=C(C(=O)Nc2ccc3[nH]ncc3c2)C(c2ccc(F)cc2)n2ncc(C(=O)NCCN(C)C)c2N1 (stereo not drawn): > 500 nM
CC1=C(C(=O)Nc2ccc3cnccc3c2)C(c2ccc(Cl)cc2)n2nc(CO)cc2N1 (single isomer, unassigned) [Example 62A]: < 50 nM
CC1=C(C(=O)Nc2ccc3cnccc3c2)C(c2ccc(C)c(F)c2F)n2nc(CN(C)C)cc2N1 (stereo not drawn) [Example 121]: < 50 nM
CC1=C(C(=O)Nc2ccc3[nH]ncc3c2)C(c2ccc(C(F)(F)F)c(F)c2)n2nnnc2N1 (single isomer, unassigned) [Example 25A]: < 50 nM

Recorded Ki of CC1=C(C(=O)Nc2ccc3cnccc3c2)C(c2ccc(C(F)(F)F)c(F)c2)n2nc(CN(C)C)cc2N1 (single isomer, unassigned) [Example 94B] , please.
< 50 nM

* * *

# collection of Ki values tested on Rho kinase 1 (Homo sapiens, UniProt Q13464)
# Sequence (Q13464 whole entry): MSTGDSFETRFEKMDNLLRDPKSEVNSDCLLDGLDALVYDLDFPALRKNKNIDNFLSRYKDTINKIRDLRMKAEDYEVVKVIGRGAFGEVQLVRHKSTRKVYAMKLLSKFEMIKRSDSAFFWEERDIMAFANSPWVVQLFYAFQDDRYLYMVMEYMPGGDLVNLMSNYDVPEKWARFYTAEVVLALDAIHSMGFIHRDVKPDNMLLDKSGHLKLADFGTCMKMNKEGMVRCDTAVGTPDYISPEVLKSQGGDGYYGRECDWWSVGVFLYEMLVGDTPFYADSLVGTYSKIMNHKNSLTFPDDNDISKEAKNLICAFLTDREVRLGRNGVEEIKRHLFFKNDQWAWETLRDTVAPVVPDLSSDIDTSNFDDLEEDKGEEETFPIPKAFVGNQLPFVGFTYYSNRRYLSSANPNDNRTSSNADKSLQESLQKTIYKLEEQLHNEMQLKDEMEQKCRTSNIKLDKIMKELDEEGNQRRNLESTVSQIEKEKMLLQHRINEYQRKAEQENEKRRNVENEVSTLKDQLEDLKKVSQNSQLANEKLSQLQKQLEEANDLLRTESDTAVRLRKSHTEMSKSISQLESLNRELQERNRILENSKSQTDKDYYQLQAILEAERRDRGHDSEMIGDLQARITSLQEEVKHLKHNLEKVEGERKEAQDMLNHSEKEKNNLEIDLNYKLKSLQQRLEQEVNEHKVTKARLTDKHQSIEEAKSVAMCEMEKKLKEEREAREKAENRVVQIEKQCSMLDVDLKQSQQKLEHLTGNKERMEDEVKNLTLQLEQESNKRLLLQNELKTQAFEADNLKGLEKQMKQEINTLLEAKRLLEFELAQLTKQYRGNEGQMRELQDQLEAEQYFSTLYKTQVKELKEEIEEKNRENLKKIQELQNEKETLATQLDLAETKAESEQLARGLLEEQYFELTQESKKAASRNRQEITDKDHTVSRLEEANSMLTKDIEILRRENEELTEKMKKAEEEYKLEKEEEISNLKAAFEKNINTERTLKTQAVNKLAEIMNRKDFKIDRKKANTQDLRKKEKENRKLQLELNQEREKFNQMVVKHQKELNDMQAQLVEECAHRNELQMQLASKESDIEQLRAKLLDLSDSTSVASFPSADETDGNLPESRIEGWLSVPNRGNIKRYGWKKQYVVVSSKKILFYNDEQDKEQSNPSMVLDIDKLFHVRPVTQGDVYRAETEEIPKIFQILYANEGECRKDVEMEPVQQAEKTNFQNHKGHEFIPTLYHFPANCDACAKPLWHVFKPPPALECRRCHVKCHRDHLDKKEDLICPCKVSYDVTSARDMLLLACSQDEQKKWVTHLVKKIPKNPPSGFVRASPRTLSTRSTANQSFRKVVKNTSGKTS

A selection of reference data follows.
CC1=C(C(=O)Nc2ccc3cnccc3c2)C(c2ccc3ncn(C)c3c2)n2nc(CO)cc2N1 (centres unmarked): > 500 nM
CCOC(=O)c1cc2n(n1)C(c1ccc(C)cc1)C(C(=O)Nc1ccc3[nH]ncc3c1)=C(C)N2 (centres unmarked): < 50 nM
CC1=C(C(=O)Nc2ccc3cnccc3c2)C(c2ccc(C(F)(F)F)c(F)c2)n2nc(CN3CCCC3)cc2N1 (centres unmarked): < 50 nM
CC1=C(C(=O)Nc2ccc3cnccc3c2)C(c2ccc(C(F)(F)F)c(F)c2)n2nc(C(=O)N(C)C3CCN(C)CC3)cc2N1 (centres unmarked): < 50 nM
CC1=C(C(=O)Nc2ccc3cnccc3c2)C(c2ccc(C(F)(F)F)c(F)c2)n2nc(CN(C)CC3CCN(C)CC3)cc2N1 (single isomer, unassigned) [Example 104B]: 50 to 500 nM
COCc1cc2n(n1)C(c1ccc(C(F)(F)F)cc1)C(C(=O)Nc1ccc3[nH]ncc3c1)=C(C)N2 (centres unmarked): < 50 nM
CC1=C(C(=O)Nc2ccc3cnccc3c2)C(c2ccc(C)c(F)c2)n2nc(NC(=O)CN3CCCC3)cc2N1 (centres unmarked): < 50 nM
CC1=C(C(=O)Nc2ccc3[nH]ncc3c2)C(c2ccc(F)cc2)n2nnnc2N1 (single isomer, unassigned) [Example 23B]: 50 to 500 nM
CC1=C(C(=O)Nc2ccc3[nH]ncc3c2)C(c2ccc(F)cc2)n2ncc(C(=O)NCCN(C)C)c2N1 (centres unmarked): > 500 nM
CC1=C(C(=O)Nc2ccc3[nH]ncc3c2)C(c2ccc(F)cc2)n2nc(Br)cc2N1 (centres unmarked): < 50 nM

Recorded Ki of CC1=C(C(=O)Nc2ccc3[nH]ncc3c2)C(c2ccc(C(F)(F)F)cc2)n2nc(C(=O)N3CCN(C)CC3)cc2N1 (centres unmarked) , please.
< 50 nM

Would you kindly repeat that for CC1=C(C(=O)Nc2ccc3cnccc3c2)C(C2COc3ccccc3O2)n2nc(CO)cc2N1 (single isomer, unassigned) [Example 72C] ?
50 to 500 nM

Would you kindly repeat that for CC1=C(C(=O)Nc2ccc3[nH]ncc3c2)C(c2ccc(Cl)nc2)n2nc(C(F)(F)F)cc2N1 (single isomer, unassigned) [Example 32B] ?
< 50 nM

Would you kindly repeat that for CC1=C(C(=O)Nc2ccc3cnccc3c2)C(c2ccc(C(F)(F)F)c(F)c2)n2nc(C(=O)N(C)CCN3CCOCC3)cc2N1 (centres unmarked) ?
< 50 nM
